meta.source: patent US20220380341A1

# System: TZM-bl cell line
# Assay type: cell-based
# Condition label: human, 1 μM
Please provide measured % Cell Viability for the entries that follow.
Write the number in % without appending the unit.

Recorded % Cell Viability of O=S(=O)(c1cccnc1)N1CCC(c2nn(-c3nc4ccccc4[nH]3)c(O)c2CCc2ccc(F)cc2)CC1 [Compound I-742] , please.
77.3

Recorded % Cell Viability of Oc1c(CC2CCOCC2)c(CCC2CCOCC2)nn1-c1nc2ccccc2[nH]1 [Compound I-178] , please.
97.9

Recorded % Cell Viability of Cn1c(-n2nc(-c3ccc(C(F)(F)F)cc3)c(CCc3ccc(F)cc3)c2O)nc2ccccc21 [Compound I-401] , please.
86.4

Recorded % Cell Viability of O=C(c1c(O)cc(O)cc1O)N1CCCC1c1nn(-c2nc3ccccc3[nH]2)c(O)c1CCc1ccc(F)cc1 (stereo not drawn) [Compound I-762] , please.
98.6

Recorded % Cell Viability of Oc1c(CCc2ccc(F)cc2)c(-c2ccc(F)cc2)nn1-c1nc2cc(Cl)ccc2[nH]1 [Compound I-172] , please.
96.5

Recorded % Cell Viability of CC(=O)N1CCC(c2nn(-c3nc4ccccc4[nH]3)c(O)c2Cc2ccc(F)c(F)c2)CC1 [Compound I-744] , please.
98.2

Recorded % Cell Viability of Cn1c(-n2nc(-c3ccc(S(C)(=O)=O)cc3)c(CCc3ccc(F)cc3)c2O)nc2ccccc21 [Compound I-403] , please.
99.9

Recorded % Cell Viability of COC(=O)N1CCC(CCc2c(-c3ccc(C(F)(F)F)cn3)nn(-c3nc4cc(Br)ccc4[nH]3)c2O)CC1 [Compound I-708] , please.
77.8

Recorded % Cell Viability of CS(=O)(=O)c1ccc(-c2nn(-c3nc4ccccc4[nH]3)c(O)c2CCc2ccc(F)cc2)cc1 [Compound I-148] , please.
75.5
